Quick reference: Cmax of the listed items.
Experiment: Cmax in rat at 20 mg/kg, po
Format: ADME, organism-based
Parameters: dose 20 mg/kg, route oral
Conditions: in vivo
The figure you give is taken to be in µM; do not add the unit.

{"columns": ["structure.as.smiles", "Cmax [µM]"],
 "data": [
  ["CC(C)NC(=O)/C(=C/c1cccc(-c2cc(C(C)(C)C#N)cc3cccnc23)c1)c1ccc(S(C)(=O)=O)cc1", 4.1],
  ["Cc1noc(/C(=C/c2cccc(-c3cc(C(C)(C)S(C)(=O)=O)cc4cccnc34)c2)c2ccc(S(C)(=O)=O)cc2)n1", 5.1]
]}

Next item in the queue.
Respond only with Cmax recorded for `Cc1noc(/C(=C/c2cccc(-c3cc(C(C)C)cc4cccnc34)c2)c2ccc(S(C)(=O)=O)cc2)n1`
0.5

FYI, the data here is from ChEMBL document CHEMBL1141872.
